meta.source: the RNAGym collection of RNA variant scans (doi:10.1093/nar/gkz1192)

B1: CPEB3 Ribozyme (parent)
chain: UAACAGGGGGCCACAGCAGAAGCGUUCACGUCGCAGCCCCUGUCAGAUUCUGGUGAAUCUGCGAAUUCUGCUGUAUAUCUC

# Variants of: B1
# assay-summary: self-cleavage, relative activity (ratio to wild type); higher = more cleavage; in vitro, sequencing
parameter: self-cleavage
One number for each entry.

A selection of reference data follows.
{"sequence-text": "UAACAGGGGGCCACAGCAGAAGCGUUCACGUCGCAGCCCCUGUCAGAUUCUCGUGAAUCUGCGAAUUCUGCUGAAUAUCUC [G52C U74A]", "self-cleavage": 1.28}
{"sequence-text": "UAACGGGGGGCCACAGCAGAAGCGUUCACGUCGCAGCCCCUGUCAGAUUCUGGUGAAUCUGCGAAUUCUGCUGUAUAUCAC [A5G U80A]", "self-cleavage": 0.79}
{"sequence-text": "UAACAGGGGGCCACAGCAGAAGCGUUAACGUCGCAGCCCCUGUCAGAUUCAGGUGAAUCUGCGAAUUCUGCUGUAUAUCUC [C27A U51A]", "self-cleavage": 0.38}
{"sequence-text": "UUACAGGGGGCCACAGCAGAAGCGUGCACGUCGCAGCCCCUGUCAGAUUCUGGUGAAUCUGCGAAUUCUGCUGUAUAUCUC [A2U U26G]", "self-cleavage": 0.5}
{"sequence-text": "UAACAGGGGGCCACAGCAGAAGCGUUCACGUCGCAGCCCCUGUCAGAUUCUAGUGAGUCUGCGAAUUCUGCUGUAUAUCUC [G52A A57G]", "self-cleavage": 0.99}
{"sequence-text": "UAACAGGGGGCCACAGCAGGAGCGUUCACGUCGCAGCCCCUGUCAGAUUCCGGUGAAUCUGCGAAUUCUGCUGUAUAUCUC [A20G U51C]", "self-cleavage": 0.85}
{"sequence-text": "UAACGGGGGGCCACAGCAGAAGCGUUCACGUCGCAGCCCCUGUCAGAUUCUGGUGAAUCUGCGAAUUCUGCAGUAUAUCUC [A5G U72A]", "self-cleavage": 0.48}
{"sequence-text": "UAACAGGGGGCCACAGCAGAAGCGUUCGCGUCGCAGCCCCUGUCAGAUUCUGGUGAAUCUCCGAAUUCUGCUGUAUAUCUC [A28G G61C]", "self-cleavage": 0.15}

Dear colleague, could you send me self-cleavage for each of the items below? Thanks.
1. UAACAGGGGGCCACAGCAGAAGCGUUCCCGUCGCAGCCCCUGUCAGAUUCUGGUUAAUCUGCGAAUUCUGCUGUAUAUCUC [A28C G55U]
2. UAACAGGGGGCCACAGCAGAAGGGUUCACGUCGCAGCCCCUGUCAGAUUCUGGUGAAUCUGAGAAUUCUGCUGUAUAUCUC [C23G C62A]
3. UAACAGGGGGCCACAGCAGAAGCGUUCACGUCGCAGCCCCUGUAAGAUUCUGGUGAAUCUGCGAAUUCUGCUGUGUAUCUC [C44A A75G]
4. UAACAGGGGGCCACAGCAGAAGCGUUCACGUCGCAGCCCCCGUCAGAUUCUGGUGAAUCUGCGAAAUCUGCUGUAUAUCUC [U41C U66A]

0.21
0.29
0.32
0.62
